MIC95 values for the compounds below.
# Test system: Klebsiella pneumoniae
# EXPERIMENT NOTES: Antibacterial activity against Klebsiella pneumoniae HK14368/08 clinical isolate after 48 hrs by microdilution assay
# Format: functional
# CONDITION NOTES: HK14368/08, 48 h

- SMILES ENTRY: "O=C1OC(CO)(CO)C(c2ccc(Br)cc2)=C1c1cccc(Cl)c1Cl"
  TEST READOUT: "MIC95"
  MEASURED: "> 500 µM"
- SMILES ENTRY: "COc1ccc(C2=C(c3c(Cl)cccc3Cl)C(=O)OC2)cc1"
  TEST READOUT: "MIC95"
  MEASURED: "> 500 µM"

Turning now to a further compound:
MIC95 for O=C1OCC(c2ccc(C(F)(F)F)cc2)=C1c1ccncc1 is > 500 µM

---

# System: Staphylococcus aureus
# EXPERIMENT NOTES: Antibacterial activity against methicillin-resistant Staphylococcus aureus HK5996/08 clinical isolate after 48 hrs by microdilution assay
# Assay type: functional
# CONDITION NOTES: HK5996/08, 48 h
TEST READOUT: MIC95 (µM)
I only need the number, in µM, no unit after it.

Worked set:
- SMILES ENTRY: "Cc1ccc(C2=C(c3ccc(Br)cc3)C(=O)OC2)cc1"
  TEST READOUT: "MIC95"
  MEASURED: 62.5
- SMILES ENTRY: "O=C1OCC(c2ccc(O)c(O)c2)=C1c1ccc(O)cc1"
  TEST READOUT: "MIC95"
  MEASURED: 500
- SMILES ENTRY: "COc1cc(OC)c(C2=C(c3ccc(OC)c(OC)c3OC)COC2=O)c(OC)c1"
  TEST READOUT: "MIC95"
  MEASURED: 62.5
- SMILES ENTRY: "O=C1OCC(c2ccc(C(F)(F)F)cc2)=C1c1ccc(Br)cc1"
  TEST READOUT: "MIC95"
  MEASURED: 62.5

MIC95 for O=C1OCC(c2ccccc2)=C1c1cccc(C(F)(F)F)c1 is 62.5

MIC95 for O=C1OCC(c2ccccc2)=C1c1ccc(Br)cc1 is 62.5

MIC95 for Cc1ccc(C2=C(c3cccc(C(F)(F)F)c3)C(=O)OC2)cc1 is 31.2

MIC95 for Cc1ccc(C2=C(c3ccc(Br)cc3)C(=O)OC2(CO)CO)cc1 is 500

---

# Test system: Staphylococcus epidermidis
# EXPERIMENT NOTES: Antibacterial activity against Staphylococcus epidermidis HK6966/08 clinical isolate after 48 hrs by microdilution assay
# Type: functional
# CONDITION NOTES: HK6966/08, 48 h
MIC95 values for the compounds below.

Worked set:
- SMILES ENTRY: "COc1ccc(C2=C(c3ccc(OC)c(OC)c3)COC2=O)cc1"
  ASSAYED TARGET: "Staphylococcus epidermidis"
  MIC95: "> 125 µM"
- SMILES ENTRY: "COc1ccc(C2=C(c3ccc(S(C)(=O)=O)cc3)COC2=O)cc1"
  ASSAYED TARGET: "Staphylococcus epidermidis"
  MIC95: "> 500 µM"

Param item: COc1ccc(C2=C(c3ccc(Br)cc3)C(=O)OC2)cc1 ; param system: Staphylococcus epidermidis; output MIC95: > 1000 µM

---

# Test system: Escherichia coli
# EXPERIMENT NOTES: Antibacterial activity against Escherichia coli ATCC 8739 after 24 hrs by microdilution assay
# Format: functional
# CONDITION NOTES: ATCC 8739, 24 h
MIC95 values for the compounds below.

Worked set:
- SMILES ENTRY: "O=C1OCC(c2ccccc2)=C1c1ccc(Br)cc1"
  MIC95: "> 1000 µM"
- SMILES ENTRY: "COc1ccc(C2=C(c3ccc(S(C)(=O)=O)cc3)COC2=O)cc1"
  MIC95: "> 500 µM"
- SMILES ENTRY: "CC(=O)OCC1(COC(C)=O)OC(=O)C(c2ccc(Br)cc2)=C1c1ccc(C)cc1"
  MIC95: "> 125 µM"
- SMILES ENTRY: "O=C1OCC(c2ccccc2)=C1c1cccc(C(F)(F)F)c1"
  MIC95: "> 500 µM"
- SMILES ENTRY: "O=C1OCC(c2ccc(O)c(O)c2)=C1c1ccc(O)cc1"
  MIC95: "> 500 µM"

Turning now to a further compound:
MIC95 for COc1ccc(C2=C(c3ccc(Br)cc3)C(=O)OC2)cc1 is > 1000 µM

These entries and their values trace back to ChEMBL document CHEMBL4251593.
